Can you tell me electrooxidation potential for the items I'm about to list?
measurement_protocol: Electrochemical oxidation potentials, cyclic voltammetry
Assay type: physicochemical
assay_context: cyclic voltammetry, glassy carbon electrode, dry acetonitrile
Give bare numbers, in V.

{"columns": ["molecule", "units_of_measure", "value"],
 "data": [
  ["COC(=O)C1=C(C[n+]2ccccc2)N(Cc2ccccc2)C(=O)CC1.[O-][Cl+3]([O-])([O-])[O-] [compound 29]", "V", 2.35]
]}

Look at each molecule and report its electrooxidation potential.
1. CCCCCCCCCCCCCCCCOC(=O)/C=C(\N)C[N+](C)(C)CCCCCCCCCCCC [compound 44]
2. CCCCCCCCCCCCOC(=O)C1=C(C[n+]2ccc(C(F)(F)F)cc2)NC(C[n+]2ccc(C(F)(F)F)cc2)=C(C(=O)OCCCCCCCCCCCC)C1c1ccccc1.[Br-].[Br-] [compound 21]

1: 1.24; 2: 1.63

* * *

measurement_protocol: in vitro
Type: cell-based
assay_context: human and mouse; summarises both cell lines, CV and MTT; read-out: cytotoxicity on cancer cell lines HT-1080 and MH-22A
measure_name: IC50

// known answers, use as guide
{"columns": ["compound", "value"],
 "data": [
  ["O=C(OCCCCC(F)(F)C(F)(F)C(F)(F)C(F)(F)C(F)(F)C(F)(F)C(F)(F)C(F)(F)F)C1=C(C[n+]2ccccc2)NC(C[n+]2ccccc2)=C(C(=O)OCCCCC(F)(F)C(F)(F)C(F)(F)C(F)(F)C(F)(F)C(F)(F)C(F)(F)C(F)(F)F)C1c1ccccc1", "~100 µg/mL"],
  ["CCCCCCCCCCCCOC(=O)C1=C(C[n+]2ccccc2)NC(C[n+]2ccccc2)=C(C(=O)OCCCCC(F)(F)C(F)(F)C(F)(F)C(F)(F)C(F)(F)C(F)(F)C(F)(F)C(F)(F)F)C1c1ccccc1 (stereo not drawn)", "47 to 75 µg/mL"]
]}

Shift focus to the following entry.
Can you share its IC50? I mean this compound: CCCCCCCCCCCCOC(=O)C1=C(C[N+](C)(C)C2CCCCC2)NC(C[N+](C)(C)C2CCCCC2)=C(C(=O)OCCCCCCCCCCCC)C1c1ccccc1.[O-][Cl+3]([O-])([O-])[O-].[O-][Cl+3]([O-])([O-])[O-]
23 to 54 µg/mL

* * *

System: MH-22A (mouse hepatoma)
measurement_protocol: Cytotoxicity, MTT assay, MH-22A
Type: cell-based
assay_context: Mus musculus; Table 2; 72 h exposure; read-out: MH-22A IC50 (MTT)
Can you tell me IC50 for the items I'm about to list?
Give bare numbers, in µg/mL.

Look at each molecule and report its IC50.
1. CCCCCCCCCCCC[N+](C)(C)CC1=C(C(=O)OC)CCC(=O)N1
2. O=C1CC(c2ccccc2)C(C(=O)OCCCCC(F)(F)C(F)(F)C(F)(F)C(F)(F)C(F)(F)C(F)(F)C(F)(F)C(F)(F)F)=C([P+](c2ccccc2)(c2ccccc2)c2ccccc2)N1.[Br-] (stereo not shown)
3. CCCCCCCCCCCC[N+](C)(C)CC1=C(C(=O)OCCCCC(F)(F)C(F)(F)C(F)(F)C(F)(F)C(F)(F)C(F)(F)C(F)(F)C(F)(F)F)C(c2ccccc2)CC(=O)N1 (stereo not shown)
4. O=C1CC(c2ccccc2)C(C(=O)OCCCCC(F)(F)C(F)(F)C(F)(F)C(F)(F)C(F)(F)C(F)(F)C(F)(F)C(F)(F)F)=C(C[n+]2ccccc2)N1.[O-][Cl+3]([O-])([O-])[O-] (stereo not shown)
5. O=C1CC(c2ccccc2)C(C(=O)OCCCCC(F)(F)C(F)(F)C(F)(F)C(F)(F)C(F)(F)C(F)(F)C(F)(F)C(F)(F)F)=C(C[n+]2ccccc2)N1.[Br-] (stereo not shown)
6. CCCCCCCCCCCCOC(=O)C1=C(C[N+](C)(C)CCCCCCCCCCCC)NC(=O)CC1
7. CCCCCCCCCCCC[N+](C)(C)CC1=C(C(=O)OC)C(c2ccccc2)CC(=O)N1 (stereo not shown)

[16, 39, 30, 3, 3, 1, 2]

* * *

Can you tell me IC50 for the items I'm about to list?
Test system: HT-1080 (human lung fibrosarcoma)
measurement_protocol: Cytotoxicity, MTT assay, HT-1080
Assay type: cell-based
assay_context: Homo sapiens, HT-1080; Table 1; 72 h exposure; read-out: HT-1080 IC50 (MTT)
One number for each entry, in µg/mL.

// known answers, use as guide
{"columns": ["compound", "IC50 [µg/mL]"],
 "data": [
  ["CCCCCCCCCCCCOC(=O)C1=C(C[n+]2ccc(N(C)C)cc2)NC(C[n+]2ccc(N(C)C)cc2)=C(C(=O)OCCCCCCCCCCCC)C1c1ccccc1.[Br-].[Br-]", 3],
  ["O=C(OCCCCCCCCCCCC(F)(F)F)C1=C(C[n+]2ccccc2)NC(C[n+]2ccccc2)=C(C(=O)OCCCCCCCCCCCC(F)(F)F)C1c1ccccc1.[O-][Cl+3]([O-])([O-])[O-].[O-][Cl+3]([O-])([O-])[O-]", 10],
  ["O=C(OCCCCC(F)(F)C(F)(F)C(F)(F)C(F)(F)C(F)(F)C(F)(F)C(F)(F)C(F)(F)F)C1=C(C[n+]2ccccc2)NC(C[n+]2ccccc2)=C(C(=O)OCCCCC(F)(F)C(F)(F)C(F)(F)C(F)(F)C(F)(F)C(F)(F)C(F)(F)C(F)(F)F)C1c1ccccc1", 100],
  ["CCCCCCCCCCCCOC(=O)c1c(C[n+]2ccccc2)nc(C[n+]2ccccc2)c(C(=O)OCCCCCCCCCCCC)c1-c1ccccc1.[Br-].[Br-]", 3.1],
  ["CCCCCCCCCCCCOC(=O)C1=C(C[n+]2ccccc2)NC(C[n+]2ccccc2)=C(C(=O)OCCCCCCCCCCCC)C1c1ccc(O)cc1.[Br-].[Br-]", 10],
  ["CCCCCCCCCCCCOC(=O)C1=C(C[n+]2ccccc2)NC(C[n+]2ccccc2)=C(C(=O)OCCCCC(F)(F)C(F)(F)C(F)(F)C(F)(F)C(F)(F)C(F)(F)C(F)(F)C(F)(F)F)C1c1ccccc1 (stereo not shown)", 47]
]}

Shift focus to the following entry.
Can you share its IC50? I mean this compound: CCCCCCCCCCCCOC(=O)C1=C(C[n+]2cccc(C(C)=O)c2)NC(C[n+]2cccc(C(C)=O)c2)=C(C(=O)OCCCCCCCCCCCC)C1c1ccccc1.[Br-].[Br-]
3

* * *

measurement_protocol: in vitro
assay_context: mouse, NIH3T3 LD50, Table 3; calculated from NIH3T3 IC50 by regression formula
Can you tell me LD50 for the items I'm about to list?
One number for each entry, in mg/kg.

// known answers, use as guide
{"columns": ["molecule", "units_of_measure", "value"],
 "data": [
  ["CCCCCCCCCCCCCCCCOC(=O)/C=C(\\N)C[N+](C)(C)C1CCCCC1 [compound 39]", "mg/kg", 97],
  ["CCCCCCCCCCCC[N+](C)(C)C/C(N)=C/C(=O)OCCCCCCCCCC [compound 48]", "mg/kg", 485],
  ["CCCCCCCCCCCCCCCCOC(=O)/C=C(\\N)C[N+](C)(C)CCCCCCCCCCCC [compound 45]", "mg/kg", 573],
  ["CCCCCCCCCCCCOC(=O)/C=C(\\N)C[n+]1ccccc1 [compound 47]", "mg/kg", 403]
]}

Shift focus to the following entry.
Can you share its LD50? I mean this molecule: CCCCCCCCCCCCCCCCOC(=O)/C=C(\N)C[N+](C)(C)CCCCCC [compound 43]
538

* * *

measurement_protocol: Cytotoxicity, crystal violet (CV) assay, MH-22A
Assay type: cell-based, mouse
assay_context: mouse; summarises CV and MTT values; read-out: cytotoxicity towards MH-22A cells
measure_name: IC50

Can you share its IC50? I mean this molecule: CCCCCCCCCCCCOC(=O)C1=C(C[n+]2ccccc2)NC(C[n+]2ccccc2)=C(C(=O)OCCCCCCCCCCCC)C1c1ccccc1.[Br-].[Br-]
3 to 6 µg/mL

* * *

measurement_protocol: Cytotoxicity, crystal violet (CV) assay, HT-1080
assay_context: human
measure_name: IC50 at 72 h

Can you share its IC50 at 72 h? I mean this compound: CCCCCCCCCCCCOC(=O)C1=C(C[n+]2ccccc2)NC(C[n+]2ccccc2)=C(C(=O)OCCCCCCCCCCCC)C1c1ccccc1.[Br-].[Br-] [compound 10]
~3 µg/mL

* * *

Tested on: cancer cell lines HT-1080 and MH-22A
measurement_protocol: in vitro
Type: cell-based
measure_name: cytotoxicity to cancer cell lines HT-1080 and MH-22A (in words)

{"columns": ["compound", "value"],
 "data": [
  ["COC(=O)C1=C(C[n+]2ccccc2)NC(=O)CC1c1ccccc1OC(F)F.[Br-] (stereo not shown)", "inert"],
  ["COC(=O)C1=C(C[n+]2ccccc2)N(Cc2ccccc2)C(=O)CC1.[O-][Cl+3]([O-])([O-])[O-]", "inert"]
]}
